Target: HLA-B*40:01
Settings: chains peptide; modification not given

binder: RQWFFDLPL [SEQ ID NO: 310 serotype 3]
IC50, nM: 51
